Where do the numbers come from? From ChEMBL document CHEMBL4387733.

- ASSAY PROTOCOL: Total drug level in Wistar Han rat plasma at 1 mg/kg, iv or 2 mg/kg, po measured at 3 hrs
- Type: ADME, organism-based
ASSAY METRIC: concentration at 3 h (nM)
Answers are plain numbers, in nM.

COc1cc(-c2ccc3c(c2)CC[C@H]3Oc2cccc([C@H](C3CC3)[C@H](C)C(=O)O)c2)c(F)cn1	1900
COc1ccc(F)c(-c2ccc3c(c2)CC[C@H]3Oc2cccc([C@H](C3CC3)[C@H](C)C(=O)O)c2F)c1	2500
COc1ccc(F)c(-c2ccc3c(c2)CC[C@H]3Oc2cccc([C@H](C3CC3)[C@H](C)C(=O)O)c2)c1	1600

Turning now to a further molecule:
Q: Quick check: concentration at 3 h of COc1cc(-c2ccc3c(c2)CC[C@H]3Oc2cccc([C@H](C3CC3)[C@H](C)C(=O)O)c2F)c(F)cn1 ?
Result: 600

----------
- ASSAY PROTOCOL: Total drug level in rat plasma at 0.3 mg/kg, po
- Format: ADME, organism-based
- CONDITION SET: in vivo
ASSAY METRIC: concentration (nM)
Answers are plain numbers, in nM.

Q: Quick check: concentration of COc1ccc(F)c(-c2ccc3c(c2)CC[C@H]3Oc2cccc([C@H](C3CC3)[C@H](C)C(=O)O)c2)c1 ?
Result: 207

----------
For each of the compounds below, state its Cmax.
- ASSAY PROTOCOL: Cmax in Wistar Han rat at 1 mg/kg, iv or 2 mg/kg, po
- Assay type: ADME, organism-based
- CONDITION SET: in vivo
Answers are plain numbers, in µM.

Past entries and their recorded results:
COc1ccc(F)c(-c2ccc3c(c2)CC[C@H]3Oc2cccc([C@H](C3CC3)[C@H](C)C(=O)O)c2F)c1	2.9
COc1cc(-c2ccc3c(c2)CC[C@H]3Oc2cccc([C@H](C3CC3)[C@H](C)C(=O)O)c2)c(F)cn1	10.7
COc1cc(-c2ccc3c(c2)CC[C@H]3Oc2cccc([C@H](C3CC3)[C@H](C)C(=O)O)c2F)c(F)cn1	6.3

Turning now to a further compound:
Q: Quick check: Cmax of COc1ccc(F)c(-c2ccc3c(c2)CC[C@H]3Oc2cccc([C@H](C3CC3)[C@H](C)C(=O)O)c2)c1 ?
Result: 2.9

----------
- EXPERIMENTAL TARGET: Free fatty acid receptor 1 (Homo sapiens, UniProt O14842)
- Sequence (O14842 whole entry): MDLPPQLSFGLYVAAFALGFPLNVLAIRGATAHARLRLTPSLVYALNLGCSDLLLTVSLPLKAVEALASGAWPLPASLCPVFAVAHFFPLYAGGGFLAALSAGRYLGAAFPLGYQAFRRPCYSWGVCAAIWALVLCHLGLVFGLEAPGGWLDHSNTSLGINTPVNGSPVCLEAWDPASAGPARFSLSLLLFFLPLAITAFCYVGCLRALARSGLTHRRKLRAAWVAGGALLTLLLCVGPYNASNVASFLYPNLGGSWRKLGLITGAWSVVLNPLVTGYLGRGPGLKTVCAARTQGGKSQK
- ASSAY PROTOCOL: Positive allosteric modulation of recombinant human GPR40 expressed in HEK293 cells assessed as increase in [3H]-myo-inositol phosphate accumulation measured after 60 mins in presence of 100% human serum by microbeta counting method
- Format: functional, cell-based
// returns No unless EC50 is strictly below 5 µM, in which case Yes

COc1ccc(F)c(-c2ccc3c(c2F)CC[C@H]3Oc2cccc([C@H](C3CC3)[C@H](C)C(=O)O)c2)c1	Yes
COc1cc(-c2ccc3c(c2)CC[C@H]3Oc2cccc([C@H](C3CC3)[C@H](C)C(=O)O)c2)ccn1	Yes
COc1cc(-c2ccc3c(c2)CC[C@H]3Oc2cccc([C@H](C3CC3)[C@H](C)C(=O)O)c2F)c(F)cn1	Yes
COc1ccc(F)c(-c2ccc3c(c2)CC[C@H]3Oc2cccc([C@H](C3CC3)[C@H](C)C(=O)O)c2F)c1	Yes
COc1ccc(F)c(-c2cc3c(cc2F)[C@H](Oc2cccc([C@H](C4CC4)[C@H](C)C(=O)O)c2)CC3)c1	No
COc1ccc(F)c(-c2ccc3c(c2)CC[C@H]3Oc2cccc([C@H](C3CC3)[C@@H](C)C(=O)O)c2)c1	No

Q: In the record for COc1ccc(F)c(-c2ccc3c(c2)CC[C@@H]3Oc2cccc([C@H](C3CC3)[C@H](C)C(=O)O)c2)c1 , is EC50 less than 5 µM?
Result: No

Q: In the record for COc1ccc(F)c(-c2ccc3c(c2)CC[C@H]3Oc2cccc([C@@H](CC(=O)O)C3CC3)c2)c1 , is EC50 less than 5 µM?
Result: No

Q: In the record for COc1ccc(F)c(-c2cc(F)c3c(c2)CC[C@H]3Oc2cccc([C@@H](CC(=O)O)C3CC3)c2)c1 , is EC50 less than 5 µM?
Result: No

Q: In the record for COc1ccc(F)c(-c2cc3c(cn2)[C@H](Oc2cccc([C@H](C4CC4)[C@H](C)C(=O)O)c2)CC3)c1 , is EC50 less than 5 µM?
Result: Yes

Q: In the record for COc1ccc(F)c(-c2ccc3c(c2)OC[C@@H]3Oc2cccc([C@@H](CC(=O)O)C3CC3)c2)c1 , is EC50 less than 5 µM?
Result: No

Q: In the record for COc1ccc(F)c(-c2ccc3c(c2C2=CCCC2(C)C)CC[C@H]3Oc2cccc([C@H](C3CC3)[C@H](C)C(=O)O)c2)c1 , is EC50 less than 5 µM?
Result: No

Q: In the record for COc1ccc(F)c(-c2ccc3c(n2)CC[C@H]3Oc2cccc([C@H](C3CC3)[C@H](C)C(=O)O)c2)c1 , is EC50 less than 5 µM?
Result: No

Q: In the record for COc1ccc(F)c(-c2ccc3c(c2)CC[C@H]3Oc2cccc([C@H](C3CC3)[C@H](C)C(=O)O)c2)c1 , is EC50 less than 5 µM?
Result: Yes

Q: In the record for COc1cc(-c2ccc3c(c2)CC[C@H]3Oc2cccc([C@H](C3CC3)[C@H](C)C(=O)O)c2)c(F)cn1 , is EC50 less than 5 µM?
Result: Yes

Q: In the record for COc1ccc(F)c(-c2ccc(COc3cccc([C@@H](CC(=O)O)C4CC4)c3)cc2)c1 , is EC50 less than 5 µM?
Result: No
